Assay: Cytotoxicity against mouse Hepa-1c1c7 cells after 48 hrs
Type: cell-based
Settings: read-out: LD50
readout type: CC50 at 48 h

Look over these answered cases.
[[record]]
molecule = "CC[S+]([O-])C(=O)N(CCCC[S+](C)[O-])Cc1ccc(-c2ccccc2)cc1 (stereo not given)"
test_result = "16 µM"

[[record]]
molecule = "CC[S+]([O-])C(=O)N(CCCC[S+](C)[O-])Cc1ccccc1 (stereo not given)"
test_result = "> 200 µM"

[[record]]
molecule = "CC[S+]([O-])C(=O)N(CCCC[S+](C)[O-])C1CCCCC1 (stereo not given)"
test_result = "> 200 µM"

[[record]]
molecule = "CC[S+]([O-])C(=O)N(CCCC[S+](C)[O-])Cc1ccc(C(C)(C)C)cc1 (stereo not given)"
test_result = "32 µM"


Please find the next molecule below.
Qu. # get_value(readout='CC50 at 48 h', item= CC[S+]([O-])C(=O)N(CCCC[S+](C)[O-])c1ccccc1 (stereo not given) )
Ans. > 200 µM

###

# key: entry, value: CD
Target: NAD(P)H dehydrogenase [quinone] 1 (Mus musculus)
Test: Induction of NQO1 activity in mouse Hepa-1c1c7 cells after 48 hrs by Prochaska method
Assay type: cell-based
Express the reported value numerically, then name its unit.

Field: example entries. Status: answers known.
[[record]]
molecule = "CCCN(CCCC[S+](C)[O-])C(=O)[S+]([O-])CC (stereo not given)"
system_name = "NAD(P)H dehydrogenase [quinone] 1 (Mus musculus)"
readout_type = "CD"
test_result = "35 µM"

[[record]]
molecule = "CC[S+]([O-])C(=O)N(CCCC[S+](C)[O-])Cc1cccc2ccccc12 (stereo not given)"
system_name = "NAD(P)H dehydrogenase [quinone] 1 (Mus musculus)"
readout_type = "CD"
test_result = "5.3 µM"

[[record]]
molecule = "CC[S+]([O-])C(=O)N(CCCC[S+](C)[O-])C1CCCCC1 (stereo not given)"
system_name = "NAD(P)H dehydrogenase [quinone] 1 (Mus musculus)"
readout_type = "CD"
test_result = "64 µM"


Qu. # CD lookup, item CC[S+]([O-])C(=O)N(CCCC[S+](C)[O-])Cc1ccccc1 (stereo not given)
Ans. 13 µM

Qu. Entry under review: CC[S+]([O-])C(=O)N(CCCC[S+](C)[O-])c1ccccc1 (stereo not given) . Reported CD?
Ans. 43 µM

Qu. Quick one: CD for CC[S+]([O-])C(=O)N(CCCC[S+](C)[O-])C1CC1 (stereo not given) ?
Ans. 43 µM

Qu. Using the record for CC[S+]([O-])C(=O)N(CCCC[S+](C)[O-])Cc1ccc(-c2ccccc2)cc1 (stereo not given) , report its CD.
Ans. 2.8 µM

Qu. Data request, read-out CD, for CC[S+]([O-])C(=O)N(C)CCCC[S+](C)[O-] (stereo not given)
Ans. 94 µM

Qu. Sample CC[S+]([O-])C(=O)N(CCCC[S+](C)[O-])Cc1ccc(C(C)(C)C)cc1 (stereo not given) — what was its CD?
Ans. 3.8 µM

Qu. Request the reported CD associated with CC[S+]([O-])C(=O)N(CCCC[S+](C)[O-])Cc1ccc(F)cc1F (stereo not given)
Ans. 7.3 µM

Hey, just so you know, these numbers are from ChEMBL document CHEMBL2429766.
